Biological target: L. donovani NMT (Leishmania donovani, UniProt D0AB09)
Sequence (D0AB09 entry or part of it): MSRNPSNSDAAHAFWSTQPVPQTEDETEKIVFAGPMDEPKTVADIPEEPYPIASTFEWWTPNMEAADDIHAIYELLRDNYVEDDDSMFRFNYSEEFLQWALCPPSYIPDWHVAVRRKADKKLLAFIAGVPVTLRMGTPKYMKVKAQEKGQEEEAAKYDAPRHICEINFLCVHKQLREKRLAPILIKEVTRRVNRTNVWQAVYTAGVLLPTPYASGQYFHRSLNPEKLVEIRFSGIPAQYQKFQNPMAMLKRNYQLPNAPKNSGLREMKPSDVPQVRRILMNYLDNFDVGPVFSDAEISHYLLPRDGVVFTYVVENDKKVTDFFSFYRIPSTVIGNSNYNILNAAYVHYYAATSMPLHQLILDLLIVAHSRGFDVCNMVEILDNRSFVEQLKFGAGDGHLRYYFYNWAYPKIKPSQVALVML
Assay: biochemical
Details: Ldon IC50, Table 1; mean of 3 separate experiments; top concentration 80 µM
measured.quantity: pIC50
Please treat pIC50 as minus the base-10 logarithm of the molar concentration.

Indicate its recorded pIC50; the compound in question is Cc1cc2nc(N(C)C3CCN(C)CC3)nc(N(C)CCC#N)c2s1 6.32

---

Target: UniProtKB D0AB09
Experiment: biochemical
Conditions: Ldon IC50, Table 2; mean of 3 determinations
measured.quantity: IC50 (µM)
Give a bare numeral; the unit µM is implied.

Give IC50 only, for Cc1cc2nc(N(C)C3CCN(C)CC3)nc(N(C)CCC#N)c2s1 , using UniProtKB D0AB09 data. 0.48
